# Assay Method Text: log P by HPLC on reversed-phase column (C 18), EEC Directive 79/831 Annex V.A8
# Format: physicochemical
# Measurement Context: reversed-phase HPLC column (C 18), pH 2.7, log P (HCOOH), acidic range pH 2.7, 0.1% aqueous formic acid and acetonitrile; reversed-phase column (C 18), 55° C.; read-out: LOGP_HCOOH
# chromatographic logP per record follows
No unit in the answer, please; the number alone is enough.

- Item Smiles: "CN(C(=O)c1cc(-c2ccc(C(F)(F)F)cc2)cc(NC(=O)C2CC2)n1)C1CC1"
  Data Value: 3.3

Next:
Report chromatographic logP for N#Cc1ccc(CNC(=O)c2cc(-c3ccc(Cl)cc3)cc(NC(=O)C3CC3)n2)cc1
3.6

Each recorded value in this set is attributed to patent US20190053492A1.
